Test system: C33A
experiment_summary: Primary qHTS to identify gynecologic anti-cancer compounds using libraries of approved drugs and bioactive compounds (AID 1345084); note: % is set by controls: 0 for no effect and ±100 for the full control effect; nearly all actives have a fitted effect of over 55% in size
settings: Gynecologic cancer cell panel viability, ATPlite luminescence, 48 h; series mostly up to 57.5 µM
Inconclusive results are not listed. Calls of active or inactive are those of the source. Calls come from the whole dose curve; as a rule, active = well fitted cell-killing curve with a large enough effect; inconclusive = small, poorly fitted or top-dose-only effect, or effect the other way; inactive = flat fitted curve, though single readings scatter.
property: outcome

CCCOc1ccc(C(=O)OCCN(CC)CC)cc1N; inactive
O=C(O)c1cc(=O)[nH]c(=O)[nH]1; inactive
OC(Cn1cncn1)(Cn1cncn1)c1ccc(F)cc1F; inactive

----------
Tested on: MCC-26
experiment_summary: qHTS assay to identify novel small-molecules to repurpose for Merkel cell carcinoma treatment (AID 1296009); note: nearly all actives have a fitted effect of over 60% in size
settings: MCC and control cell lines, CellTiter-Glo viability, 72 h; series mostly up to 46 µM
Results filed as inconclusive are left out. The source made the active and inactive calls. Calls come from the whole dose curve; as a rule, active = well fitted inhibition curve with a large enough effect; inconclusive = small, poorly fitted or top-dose-only effect; inactive = flat fitted curve, though single readings scatter.
Assign a class; possible classes are active, inactive

CC(C)(C)NC(=O)[C@H]1CC[C@H]2[C@@H]3CC[C@H]4NC(=O)C=C[C@]4(C)[C@H]3CC[C@]12C; inactive
COc1cc(NCc2ccc3nc(N)nc(N)c3c2C)cc(OC)c1OC; inactive
COc1cc2ncnc(Nc3cccc(Cl)c3)c2cc1OC; inactive
CC[C@H](C)C(=O)O[C@H]1C[C@@H](C)C=C2C=C[C@H](C)[C@H](CC[C@@H]3C[C@@H](O)CC(=O)O3)[C@H]21; inactive
CCCN[C@H]1CCc2nc(N)sc2C1; inactive

I would be grateful if you could indicate the recorded call for O=c1cc(O)c(Cl)c[nH]1 .
inactive

I would be grateful if you could indicate the recorded call for N[C@@H](C(=O)N[C@@H]1C(=O)N2C(C(=O)O)=C(Cl)CS[C@H]12)c1ccccc1 .
inactive

I would be grateful if you could indicate the recorded call for CC(=O)CC(c1ccccc1)c1c(O)c2ccccc2oc1=O (stereo not drawn) .
inactive

I would be grateful if you could indicate the recorded call for Nc1nc(=S)c2[nH]cnc2[nH]1 .
active

I would be grateful if you could indicate the recorded call for NC(=O)c1ccc2[nH]ccc2c1 .
inactive

I would be grateful if you could indicate the recorded call for COc1ccc(-c2ccc3cc(C(=O)O)ccc3c2)cc1C12CC3CC(CC(C3)C1)C2 .
inactive

I would be grateful if you could indicate the recorded call for CCCCOc1ccc(CC(=O)NO)cc1 .
inactive

I would be grateful if you could indicate the recorded call for O=S(=O)(O)CCS .
inactive

----------
experiment_summary: qHTS of pediatric cancer cell lines to identify multiple opportunities for drug repurposing: Confirmatory screen for OHS-50 cells (AID 1347128);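 note: compound exposure lasted 48 h at 37 degrees C; nearly all actives have a fitted effect of over 55% in size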
settings: OHS-50 osteosarcoma cells viability; series mostly up to 45.9 µM
Records with an inconclusive call do not appear. Calls of active or inactive are those of the source. The call rests on the fitted dose curve; in most records, active means well fitted cell-killing curve with a large enough effect; inconclusive means small, poorly fitted or top-dose-only effect, or effect the other way; inactive means no such curve, though single readings can be large or run the other way.
Assign a class; possible classes are true for active, false for inactive

Example entries and their recorded answers appear below.
CC(=O)[C@H]1CC[C@H]2[C@@H]3CCC4=CC(=O)CC[C@]4(C)[C@H]3CC[C@]12C; true
COC(=O)Nc1nc2ccc(S(=O)c3ccccc3)cc2[nH]1 (centres undefined); true
CC(C)NCC(O)c1ccc(NS(C)(=O)=O)cc1 (centres undefined); false
COc1nc(N)nc2c1ncn2[C@@H]1O[C@H](CO)[C@@H](O)[C@@H]1O; false
Nc1nc(F)nc2c1ncn2[C@@H]1O[C@H](CO)[C@@H](O)[C@@H]1O; true
CN(C)c1ccc(C(=C2C=CC(=[N+](C)C)C=C2)c2ccc(N(C)C)cc2)cc1; true
C[C@@H]1C[C@H]2[C@@H]3CCC4=CC(=O)C=C[C@]4(C)[C@@]3(Cl)[C@@H](O)C[C@]2(C)[C@@]1(OC(=O)c1ccco1)C(=O)CCl; true
C[C@@H](CN1CC(=O)NC(=O)C1)N1CC(=O)NC(=O)C1; false

I would be grateful if you could indicate the recorded call for NC(=O)c1cccnc1 .
false

I would be grateful if you could indicate the recorded call for CC1CC2C3CCC4=CC(=O)C=C[C@]4(C)[C@@]3(F)[C@@H](O)C[C@]2(C)[C@@]1(O)C(=O)CO (some centres undefined) .
false

I would be grateful if you could indicate the recorded call for COC(=O)Nc1nc2ccc(C(=O)c3ccccc3)cc2[nH]1 .
true

I would be grateful if you could indicate the recorded call for O=NN(CCCl)C(=O)NC1CCCCC1 .
false

I would be grateful if you could indicate the recorded call for COc1cc(NCc2ccc3nc(N)nc(N)c3c2C)cc(OC)c1OC .
true

I would be grateful if you could indicate the recorded call for COC(=O)Nc1nc2ccc(Sc3ccccc3)cc2[nH]1 .
true

----------
experiment_summary: Quantitative High-Throughput drug screen in 47 multiple myeloma cell lines against the NCATS MIPE library collection: MOLP8_DSMZ cell viability assay (AID 1918977); note: nearly all actives have a fitted effect of over 45% in size
settings: MOLP8 myeloma viability, CellTiter-Glo ATP luminescence, 48 h; series mostly up to 45.8 µM
Records with an inconclusive call do not appear. Calls of active or inactive are those of the source. Calls come from the whole dose curve; as a rule, active = well fitted cell-killing curve with a large enough effect; inconclusive = small, poorly fitted or top-dose-only effect, or effect the other way; inactive = no such curve, though single readings can be large or run the other way.
Assign a class; possible classes are active, inactive

Example entries and their recorded answers appear below.
NC(=O)N1c2ccccc2CC(=O)c2ccccc21; inactive
CC(C)(Sc1cc(C(C)(C)C)c(O)c(C(C)(C)C)c1)Sc1cc(C(C)(C)C)c(O)c(C(C)(C)C)c1; inactive
Cc1ncc([N+](=O)[O-])n1CCO; inactive
CCC(=O)O[C@]1(C(=O)CCl)[C@@H](C)C[C@H]2[C@@H]3CCC4=CC(=O)C=C[C@]4(C)[C@@]3(F)[C@@H](O)C[C@@]21C; inactive
CCOC(=O)[C@H](CCc1ccccc1)N[C@H]1CCc2ccccc2N(CC(=O)O)C1=O; active

I would be grateful if you could indicate the recorded call for N[C@@H](C(=O)N[C@@H]1C(=O)N2C(C(=O)O)=C(Cl)CS[C@H]12)c1ccccc1 .
inactive

I would be grateful if you could indicate the recorded call for O=C(O)CSCC(=O)NC1CCSC1=O (configuration not stated) .
inactive

----------
Tested on: CP192
experiment_summary: qHTS profiling for inhibitors of Plasmodium falciparum proliferation (AID 504749); note: nearly all actives have a fitted effect of over 60% in size
settings: P. falciparum in erythrocytes, SYBR Green DNA, 72 h; series mostly up to 28.7 µM
Inconclusive results are not listed. The source made the active and inactive calls. The call rests on the fitted dose curve; in most records, active means well fitted inhibition curve with a large enough effect; inconclusive means small, poorly fitted or top-dose-only effect; inactive means flat fitted curve, though single readings scatter.
Assign a class; possible classes are true (active), false (inactive)

Example entries and their recorded answers appear below.
CC(=O)Oc1ccccc1C(=O)Nc1ncc([N+](=O)[O-])s1; false
CNNCc1ccc(C(=O)NC(C)C)cc1; false
Oc1c(Cl)cc(Cl)c2cccnc12; false
CC1=CC(=O)c2ccccc2C1=O; false

I would be grateful if you could indicate the recorded call for Nc1nc(N)c2nc(CNc3ccc(C(=O)NC(CCC(=O)O)C(=O)O)cc3)cnc2n1 (stereo not drawn) .
false

I would be grateful if you could indicate the recorded call for NCCCC(O)(P(=O)(O)O)P(=O)(O)O .
false

I would be grateful if you could indicate the recorded call for C[C@]12C=CC(=O)C=C1CC[C@@H]1[C@@H]2C(=O)C[C@@]2(C)[C@H]1CC[C@]2(O)C(=O)CO .
false

I would be grateful if you could indicate the recorded call for CCc1c2c(nc3ccc(OC(=O)N4CCC(N5CCCCC5)CC4)cc13)-c1cc3c(c(=O)n1C2)COC(=O)[C@]3(O)CC .
false

I would be grateful if you could indicate the recorded call for NC(N)=NC(N)=NCCc1ccccc1 .
false

I would be grateful if you could indicate the recorded call for CCN(C)C(=O)Oc1cccc([C@H](C)N(C)C)c1 .
false

I would be grateful if you could indicate the recorded call for COc1ccc2cc3[n+](cc2c1OC)CCc1cc2c(cc1-3)OCO2 .
true

I would be grateful if you could indicate the recorded call for Nc1ccc(S(=O)(=O)Nc2ccccn2)cc1 .
false

I would be grateful if you could indicate the recorded call for CCOCC(O)COc1ccc(NC(=O)CC[S+](C)C)cc1 (stereo not drawn) .
false

----------
experiment_summary: Drug repurposing screens with cells derived from glioblastoma tumor samples (AID 1345199); note: % is set by controls: 0 for no effect and ±100 for the full control effect; nearly all actives have a fitted effect of over 40% in size
settings: GBM patient neurospheres viability, ATP luminescence, 48 h; at 46.1 µM (top of the series); tumour line C
Inconclusive results are not listed.
Recorded activity, negative = cell killing by entry
Kindly answer with a numeric value in %, unit omitted.

NCCCC(O)(P(=O)(O)O)P(=O)(O)O; -10.2

If you can, please state the reported activity, negative = cell killing value of COc1nc(N)nc2c1ncn2[C@@H]1O[C@H](CO)[C@@H](O)[C@@H]1O .
-10.9

If you can, please state the reported activity, negative = cell killing value of O=P(O)(O)C(O)(Cc1cccnc1)P(=O)(O)O .
2.44

If you can, please state the reported activity, negative = cell killing value of CO[C@@]12[C@H](COC(N)=O)C3=C(C(=O)C(C)=C(N)C3=O)N1C[C@@H]1N[C@@H]12 .
-16.3

If you can, please state the reported activity, negative = cell killing value of O=C(O)CSCC(=O)NC1CCSC1=O (configuration not stated) .
18.1

----------
experiment_summary: Quantitative High-Throughput drug screen in 47 multiple myeloma cell lines against the NCATS MIPE library collection: OCIMY5_PLB cell viability assay (AID 1918988); note: nearly all actives have a fitted effect of over 65% in size
settings: OCI-MY5 myeloma viability, ATP luminescence, 48 h; series mostly up to 45.8 µM
Records with an inconclusive call do not appear. The source made the active and inactive calls. The call rests on the fitted dose curve; in most records, active means well fitted cell-killing curve with a large enough effect; inconclusive means small, poorly fitted or top-dose-only effect, or effect the other way; inactive means no such curve, though single readings can be large or run the other way.
Assign a class; possible classes are True for active, False for inactive

N=C(N)c1ccc(OCCCCCOc2ccc(C(=N)N)cc2)cc1; True

I would be grateful if you could indicate the recorded call for CNCC[C@H](Oc1cccc2ccccc12)c1cccs1 .
True

I would be grateful if you could indicate the recorded call for O=C(O)C1CCCN(CCC=C(c2ccccc2)c2ccccc2)C1 (stereo not given) .
False

I would be grateful if you could indicate the recorded call for COc1ccc2cc3[n+](cc2c1OC)CCc1cc2c(cc1-3)OCO2 .
True

I would be grateful if you could indicate the recorded call for C1CCC(C(CC2CCCCN2)C2CCCCC2)CC1 (stereo not given) .
True

I would be grateful if you could indicate the recorded call for CN1CCCC(n2nc(Cc3ccc(Cl)cc3)c3ccccc3c2=O)CC1 (stereo not given) .
True

I would be grateful if you could indicate the recorded call for CCn1cc(C(=O)O)c(=O)c2cc(F)c(N3CCNCC3)cc21 .
False

I would be grateful if you could indicate the recorded call for CC(C)(C#N)c1cc(Cn2cncn2)cc(C(C)(C)C#N)c1 .
False

I would be grateful if you could indicate the recorded call for COc1cc2c(Nc3ccc(Br)cc3F)ncnc2cc1OCC1CCN(C)CC1 .
True

I would be grateful if you could indicate the recorded call for Cc1ncc([N+](=O)[O-])n1CCO .
False

I would be grateful if you could indicate the recorded call for CO[C@@]12[C@H](COC(N)=O)C3=C(C(=O)C(C)=C(N)C3=O)N1C[C@@H]1N[C@@H]12 .
True

I would be grateful if you could indicate the recorded call for CCN[C@H]1C[C@H](C)S(=O)(=O)c2sc(S(N)(=O)=O)cc21 .
False

I would be grateful if you could indicate the recorded call for CCc1c2c(nc3ccc(OC(=O)N4CCC(N5CCCCC5)CC4)cc13)-c1cc3c(c(=O)n1C2)COC(=O)[C@]3(O)CC .
True

I would be grateful if you could indicate the recorded call for CCOCC(O)COc1ccc(NC(=O)CC[S+](C)C)cc1 (stereo not given) .
False

I would be grateful if you could indicate the recorded call for CC(C)OC(=O)OCOP(=O)(CO[C@H](C)Cn1cnc2c(N)ncnc21)OCOC(=O)OC(C)C .
True

I would be grateful if you could indicate the recorded call for COc1c(N2CCNC(C)C2)c(F)cc2c(=O)c(C(=O)O)cn(C3CC3)c12 (stereo not given) .
False
